- Tested on: Mycobacterium tuberculosis (Mtb-GFP; H37Rv pMSP12::GFP)
- TEST NAME: microbe, parasite or virus in culture
- Assay type: cell-based
- REPORTED CONDITIONS: 168 h, pH 6.8, read-out: Mtb Cho MITC95

{"MOLECULE": "Cn1nccc1-c1ccc(N2C[C@H](CN/C(N)=N/C#N)OC2=O)cc1F", "MIC, µM": 0.78}
{"MOLECULE": "C/C(=N\\C#N)NC[C@H]1CN(c2cnc(N3CCS(=O)(=O)CC3)c(F)c2)C(=O)O1", "MIC, µM": 6.25}
{"MOLECULE": "Cn1nccc1-c1ccc(N2C[C@H](CNC=N)OC2=O)cc1F", "MIC, µM": 0.78}
{"MOLECULE": "N=CNC[C@H]1CN(c2cc(F)c(-c3cccc(S(N)(=O)=O)c3)c(F)c2)C(=O)O1", "MIC, µM": 0.68}
{"MOLECULE": "CS(=O)(=O)c1ccc(-c2ccc(N3C[C@H](CN/C(N)=N/C#N)OC3=O)cc2F)cn1", "MIC, µM": 0.39}
{"MOLECULE": "N=CNC[C@H]1CN(c2cc(F)c(-c3ccc(S(N)(=O)=O)cc3)c(F)c2)C(=O)O1", "MIC, µM": 0.39}
{"MOLECULE": "CS(=O)(=O)c1ccc(-c2ccc(N3C[C@H](CN/C(N)=N/C#N)OC3=O)cc2F)cc1", "MIC, µM": 0.39}
{"MOLECULE": "C/C(=N\\C#N)NC[C@H]1CN(c2ccc(-c3ccc(-n4nccn4)nc3)c(F)c2)C(=O)O1", "MIC, µM": 0.39}
{"MOLECULE": "C/C(=N\\C#N)NC[C@H]1CN(c2ccc(-c3ccc(S(C)(=O)=O)cc3)c(F)c2)C(=O)O1", "MIC, µM": 0.58}
{"MOLECULE": "CC(=N)NC[C@H]1CN(c2ccc(-c3ccc(-n4cnnn4)nc3)c(F)c2)C(=O)O1", "MIC, µM": 12.5}
{"MOLECULE": "C/C(=N\\C#N)NC[C@H]1CN(c2ccc(-c3cccc(S(N)(=O)=O)c3)c(F)c2)C(=O)O1", "MIC, µM": 1.14}
{"MOLECULE": "CC(=N)NC[C@H]1CN(c2ccc(-c3ccnn3C)c(F)c2)C(=O)O1", "MIC, µM": 25}
{"MOLECULE": "CC(=O)NC[C@H]1CN(c2ccc(N3CCOCC3)c(F)c2)C(=O)O1 [Linezolid, reference compound]", "MIC, µM": 3.14}
{"MOLECULE": "CC(=N)NC[C@H]1CN(c2ccc(-c3cccc(S(N)(=O)=O)c3)c(F)c2)C(=O)O1", "MIC, µM": 6.25}
{"MOLECULE": "C/C(=N\\C#N)NC[C@H]1CN(c2ccc(-c3ccnn3C)c(F)c2)C(=O)O1", "MIC, µM": 0.78}
{"MOLECULE": "N=CNC[C@H]1CN(c2cc(F)c(N3CCOCC3)c(F)c2)C(=O)O1", "MIC, µM": 0.58}
{"MOLECULE": "N=CNC[C@H]1CN(c2ccc(-c3ccc(-n4cnnn4)nc3)c(F)c2)C(=O)O1", "MIC, µM": 0.24}
{"MOLECULE": "C/C(=N\\C#N)NC[C@H]1CN(c2ccc(N3CCOCC3)c(F)c2)C(=O)O1", "MIC, µM": 3.12}
{"MOLECULE": "C/C(=N\\C#N)NC[C@H]1CN(c2ccc(-c3ccc(S(C)(=O)=O)nc3)c(F)c2)C(=O)O1", "MIC, µM": 1.5}
{"MOLECULE": "N#C/N=C(\\N)NC[C@H]1CN(c2ccc(-c3ccc(-n4nccn4)nc3)c(F)c2)C(=O)O1", "MIC, µM": 0.19}
{"MOLECULE": "CS(=O)(=O)c1ccc(-c2ccc(N3C[C@H](CNC=N)OC3=O)cc2F)cc1", "MIC, µM": 0.39}
{"MOLECULE": "Cc1nnn(-c2ccc(-c3ccc(N4C[C@H](CN/C(N)=N/C#N)OC4=O)cc3F)cn2)n1", "MIC, µM": 0.19}
{"MOLECULE": "CC(=N)NC[C@H]1CN(c2cc(F)c(-c3cccc(S(N)(=O)=O)c3)c(F)c2)C(=O)O1", "MIC, µM": 6.25}
{"MOLECULE": "C/C(=N\\C#N)NC[C@H]1CN(c2cc(F)c(N3CCS(=O)(=O)CC3)c(F)c2)C(=O)O1", "MIC, µM": 3.12}
{"MOLECULE": "C/C(=N\\C#N)NC[C@H]1CN(c2ccc(-c3ccc(-n4nnc(C)n4)nc3)c(F)c2)C(=O)O1", "MIC, µM": 0.19}
